tested on: panel of melanoma cell lines (A375, M14, RPMI7951); test: Antiproliferative activity, panel of melanoma cell lines; assay type: cell-based, human; details: Homo sapiens, 72 h, read-out: IC50 values, range over the melanoma cell lines
Below, each of the compounds is paired with its reported IC50 value.

| compound | IC50 |
| --- | --- |
| COc1cc(C(=O)c2c[nH]c(-c3c[nH]c4ccccc34)n2)cc2c1OCCO2 [13c] | 11.3 to 29.2 nM |
| COc1cc(C(=O)c2c[nH]c(-c3c[nH]c4ccccc34)n2)cc2c1OCO2 [13d] | 3.5 to 5.6 nM |
| O=C(c1ccc2c(c1)OCCO2)c1c[nH]c(-c2c[nH]c3ccccc23)n1 [13a] | 119 to 218 nM |
| COc1cc(C(=O)c2c[nH]c(-c3c[nH]c4cccc(C)c34)n2)cc2c1OC=CO2 [compound 25] | 6.1 to 8.8 nM |
| COc1cc(C(=O)c2c[nH]c(-c3c[nH]c4ccccc34)n2)cc2c1OCCCO2 [13e] | 32.2 to 47.7 nM |
| COc1cc(C(=O)c2c[nH]c(-c3c[nH]c4ccccc34)n2)cc2c1OC=CO2 [13f] | 1.1 to 3.3 nM |
